// reported fold induction at 15 µM for each item listed
assayTarget: SFRP-1 (Homo sapiens, UniProt Q8N474)
Sequence (Q8N474 32-314): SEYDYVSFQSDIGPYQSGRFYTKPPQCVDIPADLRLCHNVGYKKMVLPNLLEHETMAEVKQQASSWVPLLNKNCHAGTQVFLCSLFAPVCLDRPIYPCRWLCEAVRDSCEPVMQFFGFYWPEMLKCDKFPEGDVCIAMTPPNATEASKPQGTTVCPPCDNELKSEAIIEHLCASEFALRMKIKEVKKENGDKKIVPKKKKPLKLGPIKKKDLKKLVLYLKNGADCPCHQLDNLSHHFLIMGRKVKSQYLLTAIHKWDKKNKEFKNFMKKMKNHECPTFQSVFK
measurementNotes: Cell-based assay for in vitro measurement of SFRP-1/SARP2 antagonist activity (U2OS cells co-transfected with 16x TCF-tk-Luciferase reporter, Wnt and hSFRP-1)
assayContext: U2OS, read-out: Fold Induction without SFRP-1, Conc 15 μM; without SFRP-1, single dose
Hey, just send me the number, nothing else.

Study these solved cases before continuing.
- compound: "Cc1ccc(S(=O)(=O)c2ccccc2)cc1S(=O)(=O)NC1CCN(C(=O)c2ccc3c(c2)OCO3)CC1"
  measValue: 1.1
- compound: "CC(C)c1ccc(S(=O)(=O)c2ccccc2)cc1S(=O)(=O)NCCc1ccccc1"
  measValue: 1.5
- compound: "Cc1ccc(S(=O)(=O)c2ccccc2)cc1S(=O)(=O)NCCC1CCCN1C (stereo not shown)"
  measValue: 1.1

Let us move to another entry and its fold induction at 15 µM.
So for COCCCNS(=O)(=O)c1cc(S(=O)(=O)c2ccccc2)ccc1C , the logged fold induction at 15 µM turned out to be 1

---

assayTarget: UniProtKB Q8N474
measurementNotes: Cell-based assay for in vitro measurement of SFRP-1/SARP2 antagonist activity (U2OS cells co-transfected with 16x TCF-tk-Luciferase reporter, Wnt and hSFRP-1);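 note: U2OS cells co-transfected with a TCF-tk luciferase reporter, a Wnt vector, hSFRP-1 or empty vector and CMV-βgal, luciferase luminescence read in cell lysates alongside βgal activity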
assayContext: U2OS, read-out: Fold Induction with SFRP-1, Conc 15 μM; single dose; luciferase reporter, fold induction over SFRP-1 control; cells with SFRP-1
Please mark 1.0 if the recorded fold induction at 15 µM is equal to or greater than 3, and 0.0 if it falls below.

Example entries and their recorded answers appear below.
- compound: "Cc1ccc(S(=O)(=O)c2ccccc2)cc1S(=O)(=O)NC1CCN(C(=O)c2ccc(N(C)C)cc2)CC1 [Example 499]"
  category: 0.0
- compound: "CCN(CC)C1CCN(S(=O)(=O)c2cc(S(=O)(=O)c3ccccc3)ccc2Cl)C1 (centres unmarked) [Example 644]"
  category: 0.0
- compound: "Cc1ccc(S(=O)(=O)c2ccccc2)cc1S(=O)(=O)NC1CCN(C(=O)CC(C)(C)C)CC1 [Example 504]"
  category: 0.0

Please indicate if the recorded fold induction at 15 µM for CCCc1ccc(S(=O)(=O)c2ccc(F)cc2)cc1S(=O)(=O)NCCCn1ccnc1 [Example 565] meets or exceeds 3.
1.0

Please indicate if the recorded fold induction at 15 µM for CC(C)c1cc(C(C)C)c(S(=O)(=O)c2ccc(F)cc2)cc1S(=O)(=O)NCC1CCOCC1 [Example 629] meets or exceeds 3.
0.0

Please indicate if the recorded fold induction at 15 µM for Cc1ccc(S(=O)(=O)c2ccccc2)cc1S(=O)(=O)NC1CCN(C(=O)OCC(C)C)CC1 [Example 498] meets or exceeds 3.
0.0

Please indicate if the recorded fold induction at 15 µM for CC(=O)N1CCC(NS(=O)(=O)c2cc(S(=O)(=O)c3ccc(F)cc3)ccc2C)CC1 [Example 585] meets or exceeds 3.
0.0

Please indicate if the recorded fold induction at 15 µM for CCCc1ccc(S(=O)(=O)c2ccccc2)cc1S(=O)(=O)NC1CCOCC1 [Example 551] meets or exceeds 3.
1.0
